Source listed as patent US5605929A.

- target.or.system: 5α-Reductase of Rat Liver Microsomes (Rattus norvegicus)
- Sequence (P24008 1-259): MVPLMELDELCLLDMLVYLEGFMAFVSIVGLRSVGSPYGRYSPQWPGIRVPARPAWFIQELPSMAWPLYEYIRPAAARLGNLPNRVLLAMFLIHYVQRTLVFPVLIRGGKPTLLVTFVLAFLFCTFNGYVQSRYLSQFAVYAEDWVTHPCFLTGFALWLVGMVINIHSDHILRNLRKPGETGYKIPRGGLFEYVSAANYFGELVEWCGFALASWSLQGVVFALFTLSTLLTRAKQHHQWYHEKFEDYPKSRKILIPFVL
- measurement.notes: [3H]4-MA binding assay, rat liver microsomes (tea catechins)
- condition.description: read-out: % Inhibition of [^3 H]4-MA binding
- Description: Microsomes were prepared as described previously (Liang and Liao, 1992) from the liver of adult Sprague-Dawley female rats or Rat-1A cells expressing a specific type of human 5α-reductase. […] [^3 H]4-MA binding assay were described in detail previously (Liang and Liao, 1992; Liang et al., 1983). […] After 30-60 min incubation at 0° C., the [^3 H]4-MA bound to microsomes was collected on a Whatman GF/F glass fiber, washed and radioactivity determined (Liang and Liao, 1992).
Provide the recorded inhibition at 5 µM for the entries that follow.
Write the value in % as a bare number.

inhibition at 5 µM for O=C(O[C@H]1Cc2c(O)cc(O)cc2O[C@@H]1c1ccc(O)c(O)c1)c1cc(O)c(O)c(O)c1 [CG, (-)Catechin-3-gallate] is 12

Short answer for O=C(O[C@@H]1Cc2c(O)cc(O)cc2O[C@@H]1c1cc(O)c(O)c(O)c1)c1cc(O)c(O)c(O)c1 [EGCG, (-)Epigallocatechin-3-gallate] : inhibition at 5 µM was 61

inhibition at 5 µM reported for this molecule O=C(O[C@@H]1Cc2c(O)cc(O)cc2O[C@@H]1c1ccc(O)c(O)c1)c1cc(O)c(O)c(O)c1 [ECG, (-)Epicatechin-3-gallate] : 25

###

Task for the reader: assign each of the following compounds its reported inhibition at 1 µM.
- target.or.system: human 5α-reductase isozyme type 2 (Homo sapiens, UniProt P31213)
- Construct: expressed in transfected cells; host or cells: Rat-1A cells infected with pMV7 retrovirus; microsomes of these cells
- Sequence (P31213 1-254): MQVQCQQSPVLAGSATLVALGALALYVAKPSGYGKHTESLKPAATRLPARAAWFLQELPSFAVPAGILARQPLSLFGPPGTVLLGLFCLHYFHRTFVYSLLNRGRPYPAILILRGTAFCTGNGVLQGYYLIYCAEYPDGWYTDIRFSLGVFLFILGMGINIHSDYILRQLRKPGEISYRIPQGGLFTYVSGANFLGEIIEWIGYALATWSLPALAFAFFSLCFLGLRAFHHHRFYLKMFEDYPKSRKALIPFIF
- measurement.notes: [3H]4-MA binding, human type 2 isozyme expressed in Rat-1A cells
- condition.description: read-out: % Inhibition of [^3 H]4-MA binding
- Text: The cDNAs for the human type 1 and 2 5α-reductases were isolated from human prostate λZAP II™ cDNA libraries using the published sequence of the 5α-reductases, PCR™ and standard library screening techniques (Sambrook et al., 1989). The type 1 and 2 cDNAs correspond to nucleotides 31-870 and 28-829, respectively, of the published sequences for these 5α-reductases (Anderson and Russell, 1990; Anderson et al., 1991). […]
Report the figure in % without appending any unit label.

Entry O=C(O[C@@H]1Cc2c(O)cc(O)cc2O[C@@H]1c1ccc(O)c(O)c1)c1cc(O)c(O)c(O)c1 [ECG, (-)Epicatechin-3-gallate] , inhibition at 1 µM reported as 17

The compound listed as CCCCC/C=C\C/C=C\C/C=C\CCCCC(=O)O has a reported inhibition at 1 µM of 22

###

- target.or.system: human 5α-reductase isozyme type 2 (Homo sapiens, UniProt P31213)
- Construct: expressed in transfected cells; host or cells: Rat-1A cells infected with pMV7 retrovirus; microsomes of these cells
- measurement.notes: [3H]4-MA binding, human type 2 isozyme expressed in Rat-1A cells
- condition.description: read-out: % Inhibition of [^3 H]4-MA binding
Please go through the items and note down their inhibition at 30 µM.
Give just the number in %; leave the unit off.

inhibition at 30 µM reported for this molecule Oc1cc(O)c2c(c1)O[C@H](c1cc(O)c(O)c(O)c1)[C@H](O)C2 [EGC, (-)Epigallocatechin] : 13

Input O=C(O[C@@H]1Cc2c(O)cc(O)cc2O[C@@H]1c1ccc(O)c(O)c1)c1cc(O)c(O)c(O)c1 [ECG, (-)Epicatechin-3-gallate] . Output inhibition at 30 µM: 76

Recorded inhibition at 30 µM (molecule CCCCC/C=C\C/C=C\C/C=C\CCCCC(=O)O [γ-Linolenic acid, γ-linolenic acid] ): 72

Entry O=C(O[C@@H]1Cc2c(O)cc(O)cc2O[C@@H]1c1cc(O)c(O)c(O)c1)c1cc(O)c(O)c(O)c1 [EGCG, (-)Epigallocatechin-3-gallate] — recorded inhibition at 30 µM = 72

###

For each entry below, report its inhibition at 10 µM value.
- target.or.system: 5α-Reductase of Rat Liver Microsomes (Rattus norvegicus)
- Sequence (P24008 1-259): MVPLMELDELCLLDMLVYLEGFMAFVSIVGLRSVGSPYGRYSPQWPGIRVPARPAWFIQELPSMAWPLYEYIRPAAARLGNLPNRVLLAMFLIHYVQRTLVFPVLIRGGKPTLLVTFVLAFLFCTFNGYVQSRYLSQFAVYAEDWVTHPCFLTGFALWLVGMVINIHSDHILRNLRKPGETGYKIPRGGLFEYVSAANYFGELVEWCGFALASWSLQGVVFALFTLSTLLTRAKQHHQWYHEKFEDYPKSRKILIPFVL
- measurement.notes: biochemical
- condition.description: read-out: % Inhibition of [^3 H]4-MA binding

Entry CCCC/C=C\CCCCCCCC(=O)O , inhibition at 10 µM reported as < 10%

Briefly, inhibition at 10 µM measured for CCCCC/C=C\C/C=C\C/C=C\CCCCC(=O)O : 50%

response.value for CC/C=C\C/C=C\C/C=C\CCCCCCCCO (field: inhibition at 10 µM) = < 10%

# inhibition at 10 µM (compound: CC/C=C\C/C=C\C/C=C\CCCCCCCC(=O)OC ) is < 10%

In plain terms, C=CCCCCCCCCC(=O)O has a documented inhibition at 10 µM of < 10%

Reported inhibition at 10 µM of CCCCC/C=C\C/C=C\CCCCCCCCO : < 10%

###

- target.or.system: human 5α-reductase isozyme type 2 (Homo sapiens, UniProt P31213)
- Construct: expressed in transfected cells; host or cells: Rat-1A cells infected with pMV7 retrovirus; microsomes of these cells
- measurement.notes: 4-[14C]testosterone reduction, human type 2 isozyme
- Type: biochemical
- condition.description: read-out: % Inhibition of 5α-reduction
For each record, write down the corresponding inhibition at 1 µM.

// inhibition at 1 µM lookup, molecule = CCCCC/C=C\C/C=C\C/C=C\CCCCC(=O)O , result: 30%

Form field inhibition at 1 µM, entry O=C(O[C@@H]1Cc2c(O)cc(O)cc2O[C@@H]1c1cc(O)c(O)c(O)c1)c1cc(O)c(O)c(O)c1 [EGCG, (-)Epigallocatechin-3-gallate] : < 10%

For O=C(O[C@@H]1Cc2c(O)cc(O)cc2O[C@@H]1c1ccc(O)c(O)c1)c1cc(O)c(O)c(O)c1 [ECG, (-)Epicatechin-3-gallate] the molecule record lists inhibition at 1 µM as < 10%

inhibition at 1 µM reported for this molecule Oc1cc(O)c2c(c1)O[C@H](c1cc(O)c(O)c(O)c1)[C@H](O)C2 [EGC, (-)Epigallocatechin] : < 10%

###

- target.or.system: human 5α-reductase isozyme type 1 (Homo sapiens)
- Construct: expressed in transfected cells; host or cells: Rat-1A cells infected with pMV7 retrovirus; microsomes of these cells
- Sequence (P18405 1-259): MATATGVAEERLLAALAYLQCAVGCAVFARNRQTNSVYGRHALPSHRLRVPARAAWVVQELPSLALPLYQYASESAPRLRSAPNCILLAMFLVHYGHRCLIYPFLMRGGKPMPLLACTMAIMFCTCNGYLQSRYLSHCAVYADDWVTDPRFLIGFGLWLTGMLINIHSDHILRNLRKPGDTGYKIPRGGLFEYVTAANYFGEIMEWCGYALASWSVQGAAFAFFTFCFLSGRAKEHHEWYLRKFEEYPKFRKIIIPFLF
- measurement.notes: 4-[14C]testosterone reduction, human type 1 isozyme
- Type: biochemical
- condition.description: read-out: % Inhibition of 5α-reduction
observable: inhibition at 10 µM (%)
Kindly provide the numeric value in % only, without the unit symbol.

For reference, reported inhibition at 10 µM for O=C(O[C@@H]1Cc2c(O)cc(O)cc2O[C@@H]1c1cc(O)c(O)c(O)c1)c1cc(O)c(O)c(O)c1 [EGCG, (-)Epigallocatechin-3-gallate] stands at 34

Briefly, inhibition at 10 µM measured for O=C(O[C@@H]1Cc2c(O)cc(O)cc2O[C@@H]1c1ccc(O)c(O)c1)c1cc(O)c(O)c(O)c1 [ECG, (-)Epicatechin-3-gallate] : 47

Measured inhibition at 10 µM, CCCCC/C=C\C/C=C\C/C=C\CCCCC(=O)O : 89
